Just for reference, patent US20050209157A1 is where these values come from.

- Test system: E. coli UB1005
- Format: cell-based, Escherichia coli
- Assay Setup: Table 12
No end group written: not given here.
Recorded Metric: MIC E. coli UB1005 (µg/mL)
Express it in µg/mL; write the number only.

Entry KWKLFKKKTKLFKKFAKKLAKKL-NH2 [P73 (49)] has what MIC E. coli UB1005?
8

Same thing, different substance: FAKFLAKFLKKAL-NH2 [P111 (75)]
16

Same thing, different substance: FAKLLAKALKKLL-NH2 [P55 (35)]
4

Same thing, different substance: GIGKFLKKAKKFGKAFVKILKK-NH2 [P42 (24)]
4

Same thing, different substance: FALALKALKKLKKALKKAL-NH2 [P27 (12)]
8

Same thing, different substance: FAKKLAKKLKKLAKKLAKKWKL-OH [P72 (48)]
2

Same thing, different substance: FAKLLALALKKAL-NH2 [P97 (165)]
8
